Data provenance: ChEMBL document CHEMBL1201862

Item-by-item account of GI50
# Test system: MDA-MB-231
# run_description: NCI tumour cell line growth inhibition, 48 h
Activity calls are given as the source filed them. Cut-off read from the data, not from the text of the source: active = GI50 up to about 1.1 µM and inactive = higher.
measured_endpoint: GI50

molecule: O=C(/C=C1\Nc2ncccc2N=C1CC(=O)c1ccccc1)c1ccccc1
measured_endpoint: GI50
result: 10.6 µM (inactive)

molecule: C[C@H]1[C@@H](c2ccccc2)O[B-](c2ccccc2)(c2ccccc2)[N+]1(C)C
measured_endpoint: GI50
result: 21.4 µM (inactive)

molecule: O=C1Nc2ccccc2/C1=C1/Nc2ccccc2/C1=N\OCCOC1OCC(O)C(O)C1O (stereo not drawn)
measured_endpoint: GI50
result: > 100 µM (inactive)

molecule: N#CC(NNC(=O)c1ccccc1O)c1c(O)ccc2ccccc12 (stereo not drawn)
measured_endpoint: GI50
result: 3.2 µM (inactive)

molecule: CC(CS(=O)(=O)Cc1ccccc1)C(N)=O (stereo not drawn)
measured_endpoint: GI50
result: > 100 µM (inactive)

molecule: O=C(Nc1ccccc1)c1cc2cc(CCl)ccc2oc1=O
measured_endpoint: GI50
result: 64.1 µM (inactive)

molecule: Cc1ccc2c3c(cnc2n1)C(=O)OCCN3C
measured_endpoint: GI50
result: > 100 µM (inactive)

molecule: O=[N+]([O-])c1nccn1CCCNc1c2ccccc2[n+]([O-])c2ccccc12
measured_endpoint: GI50
result: > 100 µM (inactive)

molecule: O=C1Nc2ccccc2/C1=C\c1c(Cl)n(-c2ccccc2)c2ccccc12
measured_endpoint: GI50
result: 3.03 µM (inactive)

molecule: CCCCCCCCOC(=O)c1cc([N+](=O)[O-])c(Sc2[nH]cnc3ncnc2-3)c([N+](=O)[O-])c1
measured_endpoint: GI50
result: 7.19 µM (inactive)

molecule: CC(C)C[C@H]1[C@@H](OCc2ccccc2)COS(=O)N1[C@H](C)c1ccccc1 (stereo partly drawn)
measured_endpoint: GI50
result: 20.2 µM (inactive)

molecule: COc1ccc(N2C(=O)C3c4[nH]c5ccc(F)cc5c4C4CCC(C(C)(C)C)CC4C3C2=O)cc1 (stereo not drawn)
measured_endpoint: GI50
result: > 10 µM (inactive)

molecule: CCN(CC)CCNc1nc2ccc([N+](=O)[O-])cc2[n+]([O-])n1
measured_endpoint: GI50
result: 15.5 µM (inactive)

molecule: O=C(NCc1cccs1)OC1CC2CCC1C2 (stereo not drawn)
measured_endpoint: GI50
result: > 100 µM (inactive)

molecule: NC(=S)N/N=C(\Cc1nc2ccc(Cl)cc2nc1O)C(=O)Nc1ccc(Cl)cc1
measured_endpoint: GI50
result: > 100 µM (inactive)

molecule: Cc1ccc2nc(-c3ccccc3)c(N=O)n2c1
measured_endpoint: GI50
result: 17.4 µM (inactive)

molecule: CC(=O)Oc1cc(-c2oc3cc(OC(C)=O)c(C4OC(CO)C(O)C(O)C4O)c(OC(C)=O)c3c(=O)c2O)c(OC(C)=O)cc1O (stereo not drawn)
measured_endpoint: GI50
result: > 100 µM (inactive)

molecule: COc1cc(C2OC[C@@H]3C(=O)OC[C@H]23)cc(O)c1OC (stereo partly drawn)
measured_endpoint: GI50
result: > 100 µM (inactive)

molecule: COC(=O)C1(NC(=O)C(N)CC(=O)O)C(C)C1C (stereo not drawn)
measured_endpoint: GI50
result: > 100 µM (inactive)

molecule: COc1cc(C2CC(C)(O)Oc3cc4c(cc32)OCO4)cc(OC)c1OC (stereo not drawn)
measured_endpoint: GI50
result: 0.252 µM (active)

molecule: COC(=O)/C=C1/OC(c2ccccc2)=C(Cl)C1=O
measured_endpoint: GI50
result: 18.8 µM (inactive)

molecule: CN(Cc1nc2c(N)nc(N)nc2nc1N)c1ccc(C(=O)NC(CCC(=O)O)C(=O)O)cc1 (stereo not drawn)
measured_endpoint: GI50
result: > 100 µM (inactive)

molecule: CC(=O)c1ccccc1NCC(=O)Nn1cnc2ccc(S(=O)(=O)Nc3ccccc3C(C)=O)cc2c1=O
measured_endpoint: GI50
result: > 100 µM (inactive)
